Measured On: AchR (Homo sapiens, UniProt P02708)
Sequence (P02708 21-457): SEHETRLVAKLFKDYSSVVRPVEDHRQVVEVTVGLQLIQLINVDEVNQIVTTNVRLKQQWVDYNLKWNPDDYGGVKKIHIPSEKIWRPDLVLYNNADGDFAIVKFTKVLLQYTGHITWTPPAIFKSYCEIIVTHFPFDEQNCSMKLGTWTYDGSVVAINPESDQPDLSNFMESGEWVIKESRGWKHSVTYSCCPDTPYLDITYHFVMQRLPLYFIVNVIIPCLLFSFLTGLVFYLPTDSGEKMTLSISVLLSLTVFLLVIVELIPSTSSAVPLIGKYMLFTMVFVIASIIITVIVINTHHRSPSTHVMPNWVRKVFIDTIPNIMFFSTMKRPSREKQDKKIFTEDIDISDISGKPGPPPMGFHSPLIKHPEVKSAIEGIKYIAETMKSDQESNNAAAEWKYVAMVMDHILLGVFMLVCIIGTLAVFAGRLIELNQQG
Procedure Details: ELISA of screened peptide phages on AchR versus streptavidin (OD450)
Type: binding
Condition Parameters: phage ELISA, absorbance at 450 nm, 5 μg/ml AchR; 4th and 5th round biopanning phages
Label rule, in plain words: OD of 0.5 and up is class 1, under 0.5 is class 0.

Look over these answered cases.
KFRRQSTR [Peptide L1-139] :: class 0
RFRKPTDR [Peptide L1-127] :: class 0
KCRKTMGR [Peptide L1-123] :: class 0
KIKKYYWK [Peptide L1-129] :: class 0

Q: Please indicate if the recorded OD for RGRRWFVK [Peptide L1-28] meets or exceeds 0.5.
A: class 1

Q: Answer whether OD of RYRRWFYR [Peptide L1-155] is greater than or equal to 0.5.
A: class 1

Q: I'd appreciate it if you could say whether RWKKNINK [Peptide L1-80] has OD at least equal to 0.5.
A: class 1
